Value source: ChEMBL document CHEMBL5143696

Heads up, these molecules all have Ki values measured for Dual specificity tyrosine-phosphorylation-regulated kinase 1A (Homo sapiens).
Recorded Metric: Ki (µM)

{"columns": ["Chemical String", "Ki / µM"],
 "data": [
  ["NC(=O)c1cc2c(-c3ccc(C(=O)NCCn4cc(CO)nn4)s3)cccc2s1", 0.118]
]}

1. NC(=O)c1cc2c(-c3ccc(C(=O)NCc4ccccc4N)s3)cccc2s1
2. NC(=O)c1cc2c(-c3ccc(C(=O)NCc4ccccc4N)s3)c(Cl)ccc2s1
3. NC(=O)c1cc2c(-c3ccc(C(=O)N[C@H](CO)Cc4ccccc4)s3)cccc2s1
Lookup: Hello, I need these entries ordered by Ki, highest reading first. Thanks! Rank them, then answer with their labels in that order.
Found: 3, 1, 2
(3: 0.101 µM, 1: 0.0678 µM, 2: 0.0362 µM)
